Assay: Pharmacokinetics after oral administration (plasma, UV spectrophotometry at 340 nm)
Format: in vivo
Details: plasma; rat, 20 mg/kg b.w. oral
Protocol: In accordance with the ICH guidelines Q2 (R1) (2005) standard calibration curves, regression equations, and values for LOD and LOQ for each compound were validated with UV spectrophotometric method. Various parameters, such as linearity, precision, limit of detection, and limit of quantification, were considered for the method validation. […] Plasma concentration by the compound was measured by UV spectrophotometry at 340 nm and validated per ICH requirements. […]
Readout Kind: Cmax (µg/mL)
Express it in µg/mL; write the number only.

Name the recorded Cmax for COc1cc2oc(-c3ccc(O)cc3)c(OC3OC(CO)C(O)C(O)C3O)c(=O)c2c(O)c1OC (stereo not shown) .
119

###

Experiment: Pharmacokinetics after oral administration (plasma, UV spectrophotometry at 340 nm)
Type: in vivo
Conditions: plasma; rat, 10 mg/kg b.w. oral
Readout Kind: MRT (h)
State the answer as a number, implicitly in h.

What value of MRT has been recorded for this entry: COc1cc2oc(-c3ccc(O)cc3)c(OC3OC(CO)C(O)C(O)C3O)c(=O)c2c(O)c1OC (stereo not shown)
3.05

###

Assay: Pharmacokinetics after oral administration (plasma, UV spectrophotometry at 340 nm)
Assay type: in vivo
Details: plasma; rat, 20 mg/kg b.w. oral
Readout Kind: MRT (h)
Your answer is read as h, so omit the unit and give the number.

Find the recorded MRT belonging to COc1cc2oc(-c3ccc(O)cc3)c(OC3OC(CO)C(O)C(O)C3O)c(=O)c2c(O)c1OC (stereo not shown) and report it.
2.98

###

Experiment: Pharmacokinetics after oral administration (plasma, UV spectrophotometry at 340 nm)
Type: in vivo
Conditions: plasma; rat, 40 mg/kg b.w. oral
Readout Kind: Cmax (µg/mL)
Your answer is read as µg/mL, so omit the unit and give the number.

What Cmax value was documented for this compound, COc1cc2oc(-c3ccc(O)cc3)c(OC3OC(CO)C(O)C(O)C3O)c(=O)c2c(O)c1OC (stereo not shown) ?
125

###

Test: Pharmacokinetics after oral administration (plasma, UV spectrophotometry at 340 nm)
Format: in vivo
Conditions: plasma; rat, 20 mg/kg b.w. oral; read-out: AUC 0–7 (converted)
Readout Kind: AUC(0-t) (µg·h/mL)
Write down the numeric answer in µg·h/mL and omit the unit.

Requested field: AUC(0-t). Item: COc1cc2oc(-c3ccc(O)cc3)c(OC3OC(CO)C(O)C(O)C3O)c(=O)c2c(O)c1OC (stereo not shown)
499

###

Assay: Pharmacokinetics after oral administration (plasma, UV spectrophotometry at 340 nm)
Format: in vivo
Conditions: plasma; rat, 10 mg/kg b.w. oral
Readout Kind: Cmax

// Cmax lookup, key: COc1cc2oc(-c3ccc(O)cc3)c(OC3OC(CO)C(O)C(O)C3O)c(=O)c2c(O)c1OC (stereo not shown)
100 µg/mL
